Assay: TRM-201-PK-102 single-dose four-period crossover pharmacokinetic study, fasted healthy subjects
Format: in vivo, human
Conditions: human, plasma, oral, 17.5 mg, 102 study, non-Hispanic or non-Latino subjects, read-out: geometric mean Cmax
measured quantity: Cmax (ng/mL)
A number alone suffices; assume ng/mL.

Looking up CS(=O)(=O)c1ccc(C2=C(c3ccccc3)C(=O)OC2)cc1 [TRM-201] , I see its Cmax listed as 207

---

Assay: 101 and 102 PK studies combined (fasted)
Format: in vivo
Details: human, plasma, oral, 20 mg, read-out: Tmax
measured quantity: Tmax (h)
Express your answer in h, writing the number without its unit.

Record summary for CS(=O)(=O)c1ccc(C2=C(c3ccccc3)C(=O)OC2)cc1 : reported Tmax = 2

---

Experiment: TRM-201-PK-102 single-dose four-period crossover pharmacokinetic study, fasted healthy subjects
Format: in vivo, human
Conditions: human, plasma, oral, 17.5 mg, 102 study, 53-60 years, read-out: arithmetic mean AUC0-∞
measured quantity: AUC(0-inf) (ng·h/mL)
Please state the figure in ng·h/mL; there is no need to write the unit.

The reported value for CS(=O)(=O)c1ccc(C2=C(c3ccccc3)C(=O)OC2)cc1 in terms of AUC(0-inf) is 3510

---

Test: TRM-201-PK-102 single-dose four-period crossover pharmacokinetic study, fasted healthy subjects
Assay type: in vivo, human
Conditions: human, plasma, oral, 17.5 mg, 102 study, non-Hispanic or non-Latino subjects, read-out: arithmetic mean Cmax
measured quantity: Cmax
Note: a bare number is incomplete; add the unit.

The recorded Cmax for CS(=O)(=O)c1ccc(C2=C(c3ccccc3)C(=O)OC2)cc1 is 214 ng/mL

---

Test: 101 and 102 PK studies combined (fasted)
Type: in vivo
Conditions: human, plasma, oral, 20 mg, 101 and 102 studies (FIG. 47), read-out: arithmetic mean AUC0-∞
measured quantity: AUC(0-inf) (ng·h/mL)
Reply with just the number (in ng·h/mL).

AUC(0-inf) measured on CS(=O)(=O)c1ccc(C2=C(c3ccccc3)C(=O)OC2)cc1 = 3750

---

Assay: TRM-201-PK-101 single-dose pharmacokinetic study, 25 mg, fasted healthy subjects
Format: in vivo, human
Conditions: human, plasma, oral, 17.5 mg, 17.5 mg formulation, estimated from 101 data; read-out: estimated Cmax
measured quantity: Cmax

Short answer for CS(=O)(=O)c1ccc(C2=C(c3ccccc3)C(=O)OC2)cc1 : Cmax was ~0.238 µg/mL

---

Assay: Solubility of rofecoxib
Type: physicochemical
Details: water; read-out: solubility in water
measured quantity: solubility

The reported value for CS(=O)(=O)c1ccc(C2=C(c3ccccc3)C(=O)OC2)cc1 in terms of solubility is < 100 µg/mL

---

Experiment: TRM-201-PK-102 single-dose four-period crossover pharmacokinetic study, fasted healthy subjects
Assay type: in vivo, human
Conditions: human, plasma, oral, 20 mg, 102 study, 41-52 years, read-out: arithmetic mean AUC0-∞
measured quantity: AUC(0-inf)
Please append the unit to your numeric answer.

// recorded AUC(0-inf) for CS(=O)(=O)c1ccc(C2=C(c3ccccc3)C(=O)OC2)cc1 : 3730 ng·h/mL

---

Test: TRM-201-PK-102 single-dose four-period crossover pharmacokinetic study, fasted healthy subjects
Type: in vivo, human
Conditions: male, human, plasma, oral, 12.5 mg, 102 study, males, read-out: arithmetic mean AUC0-∞
measured quantity: AUC(0-inf) (ng·h/mL)
The reply should be a number in ng·h/mL, with the unit left off.

Entry CS(=O)(=O)c1ccc(C2=C(c3ccccc3)C(=O)OC2)cc1 [TRM-201] ; AUC(0-inf) = 1750

---

Experiment: TRM-201-PK-102 single-dose four-period crossover pharmacokinetic study, fasted healthy subjects
Type: in vivo, human
Conditions: human, plasma, oral, 25 mg, 102 study, 18-40 years, read-out: arithmetic mean AUC0-∞
measured quantity: AUC(0-inf) (ng·h/mL)
Numeric answer only, unit ng·h/mL assumed.

What the record says about CS(=O)(=O)c1ccc(C2=C(c3ccccc3)C(=O)OC2)cc1 [TRM-201] : AUC(0-inf) is 4140

---

Assay: 101 and 102 PK studies combined (fasted)
Type: in vivo
Settings: human, plasma, oral, 17.5 mg, 101 and 102 studies (FIG. 47), read-out: arithmetic mean AUC0-∞
measured quantity: AUC(0-inf) (ng·h/mL)
Quick reminder: number only, in ng·h/mL, skip the unit.

The compound identified as CS(=O)(=O)c1ccc(C2=C(c3ccccc3)C(=O)OC2)cc1 [TRM-201] registered its AUC(0-inf) at 3290

---

Experiment: TRM-201-PK-102 single-dose four-period crossover pharmacokinetic study, fasted healthy subjects
Format: in vivo, human
Conditions: human, plasma, oral, 12.5 mg, 102 study, non-Hispanic or non-Latino subjects, read-out: arithmetic mean AUC0-∞
measured quantity: AUC(0-inf) (ng·h/mL)
Field: numeric (ng·h/mL). Do not append units.

AUC(0-inf) reported for this compound CS(=O)(=O)c1ccc(C2=C(c3ccccc3)C(=O)OC2)cc1 : 1820

---

Assay: TRM-201-PK-102 single-dose four-period crossover pharmacokinetic study, fasted healthy subjects
Assay type: in vivo, human
Conditions: human, plasma, oral, 17.5 mg, 102 study, Black or African-American subjects, read-out: arithmetic mean Cmax
Method: A Single-Dose, Open-Label, Phase 1, Four-Period Crossover Pharmacokinetic Study of TRM-201 (Rofecoxib) 12.5 mg, 17.5 mg, 20 mg and 25 mg Administered to Healthy Subjects in a Fasting State, with Comparison to Historical Pharmacokinetic Parameters of Previously Marketed Rofecoxib (“TRM-201-PK-102” or “102 PK Study”) […] In each of the four dosing periods, subjects fasted overnight for at least 10 hours before study drug dosing. […] Pharmacokinetic and safety endpoints were evaluated. […]
measured quantity: Cmax (ng/mL)
The figure you give is taken to be in ng/mL; do not add the unit.

The recorded Cmax for entry CS(=O)(=O)c1ccc(C2=C(c3ccccc3)C(=O)OC2)cc1 equals 217

---

Test: TRM-201-PK-102 single-dose four-period crossover pharmacokinetic study, fasted healthy subjects
Type: in vivo, human
Settings: human, plasma, oral, 17.5 mg, 102 study, 53-60 years, read-out: arithmetic mean Cmax
measured quantity: Cmax
A bare number is not enough; add the unit after it.

Given item CS(=O)(=O)c1ccc(C2=C(c3ccccc3)C(=O)OC2)cc1 , the value recorded as its Cmax is 239 ng/mL

---

Experiment: TRM-201-PK-102 single-dose four-period crossover pharmacokinetic study, fasted healthy subjects
Assay type: in vivo, human
Settings: human, plasma, oral, 25 mg, 102 study, body weight 47-70 kg, read-out: arithmetic mean AUC0-∞
measured quantity: AUC(0-inf) (ng·h/mL)
The answer is to be given in ng·h/mL; state only the numeric part.

The recorded AUC(0-inf) for CS(=O)(=O)c1ccc(C2=C(c3ccccc3)C(=O)OC2)cc1 [TRM-201] is 4450

---

Assay: TRM-201-PK-102 single-dose four-period crossover pharmacokinetic study, fasted healthy subjects
Type: in vivo, human
Settings: male, human, plasma, oral, 20 mg, 102 study, males, read-out: geometric mean Cmax
measured quantity: Cmax
# number then unit; no other words

The compound listed as CS(=O)(=O)c1ccc(C2=C(c3ccccc3)C(=O)OC2)cc1 shows Cmax equal to 224 ng/mL

---

Experiment: TRM-201-PK-102 single-dose four-period crossover pharmacokinetic study, fasted healthy subjects
Type: in vivo, human
Details: human, plasma, oral, 17.5 mg, 102 study, Hispanic or Latino subjects, read-out: geometric mean Cmax
Protocol: A Single-Dose, Open-Label, Phase 1, Four-Period Crossover Pharmacokinetic Study of TRM-201 (Rofecoxib) 12.5 mg, 17.5 mg, 20 mg and 25 mg Administered to Healthy Subjects in a Fasting State, with Comparison to Historical Pharmacokinetic Parameters of Previously Marketed Rofecoxib (“TRM-201-PK-102” or “102 PK Study”) […] In each of the four dosing periods, subjects fasted overnight for at least 10 hours before study drug dosing. […] Pharmacokinetic and safety endpoints were evaluated. […]
measured quantity: Cmax (ng/mL)
Form entry: value (ng/mL) — number only.

The compound listed as CS(=O)(=O)c1ccc(C2=C(c3ccccc3)C(=O)OC2)cc1 shows Cmax equal to 243

---

Experiment: TRM-201-PK-102 single-dose four-period crossover pharmacokinetic study, fasted healthy subjects
Format: in vivo, human
Details: human, plasma, oral, 12.5 mg, 102 study, 41-52 years, read-out: arithmetic mean Cmax
measured quantity: Cmax (ng/mL)
Dear colleague, please return just the value in ng/mL, with no unit written.

Entry under test: CS(=O)(=O)c1ccc(C2=C(c3ccccc3)C(=O)OC2)cc1 . Its Cmax was 140

---

Test: TRM-201-PK-102 single-dose four-period crossover pharmacokinetic study, fasted healthy subjects
Assay type: in vivo, human
Details: human, plasma, oral, 12.5 mg, 102 study, body weight 70.1-77 kg, read-out: arithmetic mean AUC0-∞
measured quantity: AUC(0-inf)

The recorded AUC(0-inf) for CS(=O)(=O)c1ccc(C2=C(c3ccccc3)C(=O)OC2)cc1 [TRM-201] is 2500 ng·h/mL
